Tested on: KM12 colon
Assay: NCI-60 one-dose screen, 48 h
Conditions: 10 µM unless noted
The panel holds about 83,000 compounds, 20% with a hit somewhere; the sample as a whole holds those more often. Calls of active or inactive are those of the source. The calls were made as follows: active = growth percent below 10; inactive = the rest.
Would you mind answering with one of these outcomes? Y for active, N for inactive

Record excerpt, results attached:
>>> df
                                   compound  system_name  assigned_label
0  C#CCNC1CCC(c2csc(C#C)n2)=C1C (centres undefined)   KM12 colon               N
1  COc1cc(-c2nc(-c3ccccc3)[nH]c2-c2ccnc(NCCCNS(=O)(=O)c3cccc(F)c3)n2)ccc1Cl   KM12 colon               N

Next up:
GET /call?item= O=S(=O)(NCCNc1nccc(-n2cnc3ccccc32)n1)c1ccc(Br)cc1 returns the recorded outcome of this test.
N

---

System: SR leukemia
Assay: NCI-60 one-dose screen, 48 h (100 = growth as untreated, 0 = no growth, -100 = all killed)
Conditions: 10 µM unless noted
About 83,000 compounds went through this panel and 20% of them were active in at least one assay; those are over-represented in the sample as a whole.
growth by entry:
Value expressed in %; do not type the unit.

>>> print(df.to_string())
                                   compound  value_type  reported_measurement
0  NC(=O)c1cccc(C#CCNC[C@H]2C[C@@H](n3ccc4c(Cl)ncnc43)[C@H](O)[C@@H]2O)c1      growth                   112
1  COc1ccc(S(=O)(=O)NCCCNc2nccc(-c3[nH]c(-c4ccccc4)nc3-c3ccc(Cl)c(O)c3)n2)cc1      growth                  61.9
2  Nc1nc(-c2cccc([N+](=O)[O-])c2)c(N=Nc2ccc([N+](=O)[O-])cc2Cl)s1      growth                  5.91
3  Cc1ccc(N2C(=O)/C(=C/C=C/c3ccco3)SC2=S)cc1      growth                  56.6
4  COC(=O)c1[nH]nc2c1C1(C(=O)N(C)c3ccccc31)C(C#N)=C(N)O2 (centres undefined)      growth                   113

Fill in growth for record O=C(NNc1nc2cc(F)c(F)cc2n2c(CN3CC4CNCC4C3)ccc12)c1ncccn1 (centres undefined)
1.34

Find the measured growth of CCCCCc1ccc(S(=O)(=O)Nc2cccc(-c3csc(NC(=O)CN4CCN(C)CC4)n3)c2)cc1 and report it.
-4.74

Answer with reported growth of CCNC(=O)N1CCc2cc(OC)c(OCCc3ccc(OC)cc3)cc2C1c1ccc(Cl)cc1C (centres undefined)
6.29

Output growth of CN(C)CCN(C)c1ccc2ncc(C#Cc3cncc(C(=O)Nc4ccc(CN5CCN(C)CC5)c(C(F)(F)F)c4)c3)n2n1
-17.4

---

Attribute: growth
Tested on: CCRF-CEM leukemia
Experiment: NCI-60 one-dose screen, 48 h (100 = growth as untreated, 0 = no growth, -100 = all killed)
Settings: 10 µM unless noted
This is part of a sample that, as a whole, favours compounds with a hit. Of some 83,000 tested, about 20% had one in any assay.
The figure you give is taken to be in %; do not add the unit.

>>> df
                               smiles_input        system_name  units_text  reported_measurement
0  Cn1ccnc1C(=O)/C=C/C=C/c1ccc(C(=O)Nc2ccc(F)cc2)cc1  CCRF-CEM leukemia           %                  10.3

Please give measured growth of the following entry: Fc1ccc(-c2cc3nc(C(Cl)Cl)nc(-c4ccco4)n3n2)cc1
85.2

Name the recorded growth of the item CC1=NC2=NN3C(=NN2C(c2ccccc2)=C1)N=NC(c1ccc(Br)cc1)=C3c1ccc(Br)cc1 in your answer.
106

Check the records and state growth for COc1ccc(/C=C/C(=O)c2cccc(NC(=O)CSc3nc4ccccc4c(=O)n3-c3ccccc3)c2)cc1OC
115

Supply reported growth belonging to this molecule: NC(N)=Nc1ccc(Oc2cccc(Nc3ccc(Cl)c(C(F)(F)F)c3)c2)cc1
17.5
